Tested on: NCI-H1944;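 further: CTB read-out in 384-well plates, triplicate wells, NPI normalised per plate against 1 µM phenylarsine oxide (0) and 0.1% DMSO (1) controls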
Experiment: normalised cell viability (NPI; 0 = phenylarsine oxide control, 1 = DMSO control) (fraction of DMSO control); NCI-H1944 is a non-small cell lung cancer line; higher = more viable cells (less compound toxicity)
Settings: glucocorticoid arm: hydrocortisone 2.75 uM co-treatment; compound 5 µM; 6 days
Counter-ions that a name gives are not always drawn. The full ranking holds about 1,900 compounds; the median of “normalised cell viability (NPI; 0 = phenylarsine oxide control, 1 = DMSO control)” is about 1, and the lowest 2% start at about 0.039. Only a selection was taken, and the lowest values are over-represented in it overall.

molecule	normalised cell viability
CCc1ccc(OCc2ccccc2C(=O)Nc2ccc3nc(C)cc(N)c3c2)cc1	0.00134
COc1ccc(-c2ccc3ncc4c(c3c2)n(-c2ccc(N3CCNCC3)c(C(F)(F)F)c2)c(=O)n4C)cn1	0.000434
S=C(S)OC1CC2CC1C1CCCC21 (stereo not drawn)	1.03
CCCCOc1c(C(=O)c2c(F)cc(C)cc2F)c[nH]c2nncc1-2	0.988
CC(=O)[C@]1(O)Cc2c(O)c3c(c(O)c2[C@@H](O[C@H]2C[C@H](N)[C@H](O)[C@H](C)O2)C1)C(=O)c1ccccc1C3=O [Idarubicin hydrochloride]	0.0017
Cc1[nH]nc2ccc(-c3cncc(OC[C@@H](N)Cc4ccccc4)c3)cc12	0.0555
CN(C)CCSSCCNC(=O)C1CCN(C(=O)CSc2ccc(Cl)cc2)CC1	1.04
O=[N+]([O-])c1ccc(CSc2ncnc3c2ncn3[C@@H]2O[C@H](CO)[C@@H](O)[C@H]2O)cc1	0.968
CCC(=O)NCC[C@@H]1CCc2ccc3c(c21)CCO3	1.01
COC(=O)C1=C(C)NC(C)=C([N+](=O)[O-])C1c1ccccc1C(F)(F)F (racemic)	0.942
COC(=O)C(N)Cc1ccc(Cl)cc1 (racemic) [DL-p-Chlorophenylalanine methyl ester hydrochloride]	1.02
Cc1cc(N)c2ccccc2[n+]1CCCCCCCCCC[n+]1c(C)cc(N)c2ccccc21 [Dequalinium chloride hydrate]	0.0383
CN(C)CCCCSC(=N)N	1.01
CNC(=O)c1nn(C)c2c1C(C)(C)Cc1cnc(Nc3ccc(N4CCN(C)CC4)cc3)nc1-2	0.306
COC[C@H](NC(=O)c1cnc(C)s1)C(=O)N[C@@H](COC)C(=O)N[C@@H](Cc1ccccc1)C(=O)[C@@]1(C)CO1	0.0253
Cc1cc(C)c(/C=C2\C(=O)Nc3ccccc32)[nH]1 [Semaxanib (SU5416)]	1.15
C[C@H](Cc1ccc(O)c(O)c1)[C@@H](C)Cc1ccc(O)c(O)c1	1.02
N#C/C(=C/c1ccc(O)c(O)c1)C(=O)NCc1ccccc1	1.03
CC[C@@H]1C(=O)N(C)c2cnc(Nc3ccc(C(=O)N[C@H]4CC[C@H](N5CCN(CC6CC6)CC5)CC4)cc3OC)nc2N1C(C)C	0.201
O=Nc1c(-c2c(O)[nH]c3cc(Br)ccc23)[nH]c2ccccc12	1.24
Cc1cc(C)c(/C=C2\C(=O)Nc3ccccc32)[nH]1	1.09
CC1=C(C(=O)OC2CCCCC2)C(c2ccc([N+](=O)[O-])cc2)C2=C(CC(C)(C)CC2=O)N1 (stereo not drawn)	1.02
NC(=S)c1ccc[n+]([C@@H]2O[C@@H](COP(=O)([O-])OP(=O)(O)OC[C@H]3O[C@@H](n4cnc5c(N)ncnc54)C(OP(=O)(O)O)[C@H]3O)C(O)C2O)c1 (stereo partly drawn) [Thio-NADP sodium]	1.01
COc1cc2c(cc1OC)[C@@H](c1ccccc1)CN(C)CC2	1.02
CC(C)C[C@H](NC(=O)CNC(=O)c1cc(Cl)ccc1Cl)B1OC(=O)CC(CC(=O)O)(C(=O)O)O1 (stereo partly drawn)	0.835
Cc1cc(N2CCOCC2)cc2[nH]c(-c3c(NCC(O)c4cccc(Cl)c4)cc[nH]c3=O)nc12 (stereo not drawn)	0.205
COc1cc2c(cc1C(F)(F)F)N(C(=O)Nc1cc(F)cc(-c3cccnc3)c1)CC2	0.0391
CN(C)C(=O)C(CCN1CCC(O)(c2ccc(Cl)cc2)CC1)(c1ccccc1)c1ccccc1 [Loperamide hydrochloride]	0.405
Cn1ccc2cc3c(cc21)CCN3C(=O)Nc1cccnc1	1.01
Cc1cnc(NC(=O)Nc2cc(Br)c(C)cc2OC[C@@H]2CNCCO2)cn1	0.827
N=c1ccn2c(n1)O[C@H]1[C@H](O)[C@@H](CO)O[C@H]12 [Ancitabine hydrochloride]	0.103
CN(C)C(=O)C(CCN1CCC(O)(c2ccc(Cl)cc2)CC1)(c1ccccc1)c1ccccc1 [Loperamide HCl]	0.893
Nc1ncnc2c1ncn2[C@@H]1O[C@@H]2COP(=O)(O)O[C@H]2[C@H]1O [Adenosine 3',5'-cyclic monophosphate]	0.981
